Test system: MCF-7
protocol: MTT cell viability assay, MCF-7
Type: cell-based
condition-info: Homo sapiens, MCF7; MTT, 72-hour incubation; read-out: IC50/μM MCF-7
We label by threshold. Values of IC50 strictly beneath 0.2 µM are met. Values of 0.2 µM and up are not met.

smiles-record: CCn1c(=O)/c(=C2\Sc3cc(F)ccc3N2C)s/c1=C\c1scc[n+]1Cc1ccccc1Br
group-label: met

smiles-record: CCn1c(=O)/c(=C2\Sc3cc(C#N)ccc3N2C)s/c1=C\c1scc[n+]1Cc1ccccc1
group-label: not met

smiles-record: CCn1c(=O)/c(=C2\Sc3ccc(OC)cc3N2C)s/c1=C\c1scc[n+]1Cc1ccccc1C(F)(F)F
group-label: not met

smiles-record: CCn1c(=O)/c(=C2\Sc3cc(Cl)ccc3N2C)s/c1=C\c1scc[n+]1Cc1nc(C)sc1C
group-label: met

smiles-record: CCn1c(=O)/c(=C2\Sc3cc(F)ccc3N2C)s/c1=C\c1scc[n+]1[C@H](C)c1ccccc1
group-label: not met

smiles-record: CCn1c(=O)/c(=C2\Sc3cc(Cl)ccc3N2C)s/c1=C\c1scc[n+]1[C@@H](C)c1ccccc1
group-label: met

smiles-record: CCn1c(=O)/c(=C2\Sc3cc(C)ccc3N2C)s/c1=C\c1scc[n+]1Cc1ccccc1SC(F)(F)F
group-label: met

smiles-record: CCn1c(=O)/c(=C2\Sc3cc(C)ccc3N2C)s/c1=C\c1scc[n+]1Cc1ccccc1C(F)(F)F
group-label: met
